These entries and their values trace back to patent US20220259593A1.

# Test system: K562 CRISPRi cells
# assay-protocol: Perturb-seq pooled growth measurement (sgRNA counts, growth phenotype γ, relative activity)
# Type: cell-based, human
# assay-setup: pooled growth phenotype γ of the Perturb-seq sgRNA, day 5, K562 CRISPRi cells
# From the text: Finally, we sought to use intermediate-activity sgRNAs to explore relationships between expression levels of various genes and the resulting cellular phenotypes. […] In addition to the single-cell transcriptomes, we measured bulk growth phenotypes conferred by sgRNAs in these cells. […]
Entries whose gamma_day5 is below -0.3 take Yes; entries at or above -0.3 take No.

[in] In plain terms, does DUT_ + _48624411.23-P1P2_10 (guide GCGAGCGAGGAGACCAACGG; listed as DNA, chemistry not fully specified) come in under -0.3 for gamma_day5?
[out] Yes

[in] In plain terms, does HSPA5_ + _128003624.23-P1P2_06 (guide GAGCCGAGTAGACGACGGTG; listed as DNA, chemistry not fully specified) come in under -0.3 for gamma_day5?
[out] No

[in] In plain terms, does ATP5E_ −_57607036.23-P1P2_00 (guide GGTGTCCAGGGGCACTCTGT; listed as DNA, chemistry not fully specified) come in under -0.3 for gamma_day5?
[out] No

[in] In plain terms, does HSPA5_ + _128003624.23-P1P2_00 (guide GAGCCGAGTAGGCGACGGTG; listed as DNA, chemistry not fully specified) come in under -0.3 for gamma_day5?
[out] Yes
